Record form. Attribute: growth inhibition. Fill in for each entry.
- ASSAY_PROTOCOL: NCI Yeast Anticancer Drug Screen. Data for the cln2 rad14 strain (AID 165);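 note: 0% = growth equal to vehicle treated cultures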
- CONDITION_SET: S. cerevisiae cln2 rad14 strain, at 50.0 µM, stronger effect = higher value
This is part of a sample that, as a whole, favours compounds with a hit. Of some 79,000 tested, about 15% had one in any assay.
Report only the number, with the unit % understood.

What the record says about N#CSc1ccc2nc(NCO)sc2c1 : growth inhibition is 96

What the record says about CC(=O)C(=C(I)I)c1ccccc1 : growth inhibition is 30.8

What the record says about C/C(=N\NC(N)=S)c1ccc(Oc2ccccc2)cc1 : growth inhibition is 98.5

What the record says about OC1c2cc(Cl)cc(Cl)c2OC2(N3CCCC3)CCCCC12 (stereo not given) : growth inhibition is 19.1

What the record says about Nc1nn2c(C(Br)Br)cc(C(Br)Br)nc2c1[N+](=O)[O-] : growth inhibition is 99.4

What the record says about C=CC1(C)CCC2C(=CCC3C(C)(C(=O)O)CCCC23C)C1 (stereo not given) (tested in a mixture with another compound) : growth inhibition is 76.8

What the record says about C=C1C(=O)O[C@@H]2CC(CO)=C([C@@H](C)CCCO)[C@@H](OC(=O)/C(C)=C\C)[C@H]12 : growth inhibition is 92.2

What the record says about O=S(=O)(Nc1cccc(C2=NCCN2)c1)c1ccc2c(S(=O)(=O)Nc3cccc(C4=NCCN4)c3)cccc2c1 : growth inhibition is 13.6

What the record says about CN(C)CC1CC/C(=C\c2ccc(Cl)c(Cl)c2)C1=O (stereo not given) : growth inhibition is 91.3

What the record says about Nc1ccc(SCCCc2c(N)nc(N)nc2N)cc1 : growth inhibition is 91.8
